measurement.target: caspase-6 (Homo sapiens, UniProt P55212)
Sequence (P55212 194-293): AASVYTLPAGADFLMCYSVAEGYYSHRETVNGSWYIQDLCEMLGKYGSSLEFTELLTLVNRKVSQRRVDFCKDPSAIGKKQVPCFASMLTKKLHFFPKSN
Sequence (P55212 30-179): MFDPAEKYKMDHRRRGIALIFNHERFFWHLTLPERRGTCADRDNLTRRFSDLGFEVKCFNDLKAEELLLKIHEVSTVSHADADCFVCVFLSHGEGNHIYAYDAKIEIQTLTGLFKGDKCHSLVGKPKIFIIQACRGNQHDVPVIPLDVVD
measured.quantity: IC50

C#CCOc1ccc([C@@H]2C[C@@H](C(=O)Nc3ccc(OC(F)(F)F)cc3)CN(S(=O)(=O)C=C)C2)cc1 (relative stereo)
48 nM

The measurements presented in this section are drawn from paper PMC10176470.
